// data source = ChEMBL document CHEMBL1141476

Test system: Candida albicans
PROCEDURE_DETAILS: Antifungal activity against Candida albicans FP633
Format: functional
Parameter: MIC. Scope: all listed entries.
PROPERTY: MIC (µg/mL)

compound="CCCCCCCCCCOc1ccc2cc(C(=O)N[C@@H]3C[C@@H](O)[C@@H](O)NC(=O)[C@@H]4[C@@H](O)[C@@H](C)CN4C(=O)[C@H]([C@H](O)CC(N)=O)NC(=O)[C@H]([C@H](O)[C@@H](O)c4ccc(O)c(OS(=O)(=O)[O-])c4)NC(=O)[C@@H]4C[C@@H](O)CN4C(=O)C([C@@H](C)O)NC3=O)ccc2c1.[Na+] (stereo partly drawn)" study_target="Candida albicans" property=MIC meas_value=0.2
compound="CCCCCCOc1ccc2cc(C(=O)N[C@@H]3C[C@@H](O)[C@@H](O)NC(=O)[C@@H]4[C@@H](O)[C@@H](C)CN4C(=O)[C@H]([C@H](O)CC(N)=O)NC(=O)[C@H]([C@H](O)[C@@H](O)c4ccc(O)c(OS(=O)(=O)[O-])c4)NC(=O)[C@@H]4C[C@@H](O)CN4C(=O)C([C@@H](C)O)NC3=O)ccc2c1.[Na+] (stereo partly drawn)" study_target="Candida albicans" property=MIC meas_value=0.78
compound="CCCCCOc1ccc(-c2ccc(/C=C/C(=O)N[C@@H]3C[C@@H](O)[C@@H](O)NC(=O)[C@@H]4[C@@H](O)[C@@H](C)CN4C(=O)[C@H]([C@H](O)CC(N)=O)NC(=O)[C@H]([C@H](O)[C@@H](O)c4ccc(O)c(OS(=O)(=O)[O-])c4)NC(=O)[C@@H]4C[C@@H](O)CN4C(=O)C([C@@H](C)O)NC3=O)cc2)cc1.[Na+] (stereo partly drawn)" study_target="Candida albicans" property=MIC meas_value=0.05

---

System: Candida albicans
PROCEDURE_DETAILS: Antifungal activity against Candida albicans FP633
Format: functional
PROPERTY: MIC (µg/mL)

molecule="CCCCCCCCOc1ccc(/C=C/C(=O)N[C@@H]2C[C@@H](O)[C@@H](O)NC(=O)[C@@H]3[C@@H](O)[C@@H](C)CN3C(=O)[C@H]([C@H](O)CC(N)=O)NC(=O)[C@H]([C@H](O)[C@@H](O)c3ccc(O)c(OS(=O)(=O)[O-])c3)NC(=O)[C@@H]3C[C@@H](O)CN3C(=O)C([C@@H](C)O)NC2=O)cc1.[Na+] (stereo partly specified)" meas_value=0.78

---

Listed here are compounds together with their documented LC30.
PROCEDURE_DETAILS: Effect on hemolysis in red blood cells
Format: ADME, cell-based, Erythrocyte
Starred links: 1 amine or outer side, 2 acyl side, 3 side chain; linkers in the order of their positions; H or OH if unused. Positions of bridges follow the written chain, without caps; N, C: chain ends. Non-standard residues stand in square brackets, D forms with d. Residues, ends and D or L forms follow the SMILES beside them. *: point of attachment. hTyr(3S-OH,4S-OH,3'-OSO3H) = N[C@H](C(=O)O)[C@H](O)[C@@H](O)c1ccc(O)c(OS(=O)(=O)O)c1; Orn(4R-OH,5S-OH) = O=C([C@H](C[C@@H](O)[C@H](O)N[*:3])N[*:1])[*:2]; Pro(3S-OH,4S-Me) = C[C@H]1CN[C@H](C(=O)O)[C@H]1O; Benzoyl(4-octyloxy) = CCCCCCCCOc1ccc(C(=O)*)cc1; Gln(3R-OH) = NC(=O)C[C@@H](O)[C@H](N)C(=O)O; Hyp = O=C(O)[C@@H]1C[C@@H](O)CN1
PROPERTY: LC30

compound="CCCCCCCCOc1ccc(C(=O)N[C@H]2C[C@@H](O)[C@H](O)NC(=O)[C@@H]3[C@@H](O)[C@@H](C)CN3C(=O)[C@H]([C@H](O)CC(N)=O)NC(=O)[C@H]([C@H](O)[C@@H](O)c3ccc(O)c(OS(=O)(=O)[O-])c3)NC(=O)[C@@H]3C[C@@H](O)CN3C(=O)[C@H]([C@@H](C)O)NC2=O)cc1.[Na+] [FR-131535] ({Benzoyl(4-octyloxy)}-[Orn(4R-OH,5S-OH)]T[Hyp][hTyr(3S-OH,4S-OH,3'-OSO3H)][Gln(3R-OH)][Pro(3S-OH,4S-Me)]; lactam 1-C)" meas_value="> 10000 µg/mL"
compound="CCCCCCCCOc1ccc(/C=C/C(=O)N[C@@H]2C[C@@H](O)[C@@H](O)NC(=O)[C@@H]3[C@@H](O)[C@@H](C)CN3C(=O)[C@H]([C@H](O)CC(N)=O)NC(=O)[C@H]([C@H](O)[C@@H](O)c3ccc(O)c(OS(=O)(=O)[O-])c3)NC(=O)[C@@H]3C[C@@H](O)CN3C(=O)C([C@@H](C)O)NC2=O)cc1.[Na+] (stereo partly drawn)" meas_value="> 10000 µg/mL"
compound="CCCCCCCOc1ccc(-c2ccc(C(=O)N[C@@H]3C[C@@H](O)[C@@H](O)NC(=O)[C@@H]4[C@@H](O)[C@@H](C)CN4C(=O)[C@H]([C@H](O)CC(N)=O)NC(=O)[C@H]([C@H](O)[C@@H](O)c4ccc(O)c(OS(=O)(=O)[O-])c4)NC(=O)[C@@H]4C[C@@H](O)CN4C(=O)C([C@@H](C)O)NC3=O)cc2)cc1.[Na+] (stereo partly drawn)" meas_value="910 µg/mL"
